// inhibition at 80 µM lookup, one value per entry
Target: mGPDH (Rattus norvegicus, UniProt P35571)
Construct: Activity of mGPDH in frozen-thawed skeletal muscle mitochondria was measured; from tissue; host or cells: skeletal muscle mitochondria
Sequence (P35571 43-727): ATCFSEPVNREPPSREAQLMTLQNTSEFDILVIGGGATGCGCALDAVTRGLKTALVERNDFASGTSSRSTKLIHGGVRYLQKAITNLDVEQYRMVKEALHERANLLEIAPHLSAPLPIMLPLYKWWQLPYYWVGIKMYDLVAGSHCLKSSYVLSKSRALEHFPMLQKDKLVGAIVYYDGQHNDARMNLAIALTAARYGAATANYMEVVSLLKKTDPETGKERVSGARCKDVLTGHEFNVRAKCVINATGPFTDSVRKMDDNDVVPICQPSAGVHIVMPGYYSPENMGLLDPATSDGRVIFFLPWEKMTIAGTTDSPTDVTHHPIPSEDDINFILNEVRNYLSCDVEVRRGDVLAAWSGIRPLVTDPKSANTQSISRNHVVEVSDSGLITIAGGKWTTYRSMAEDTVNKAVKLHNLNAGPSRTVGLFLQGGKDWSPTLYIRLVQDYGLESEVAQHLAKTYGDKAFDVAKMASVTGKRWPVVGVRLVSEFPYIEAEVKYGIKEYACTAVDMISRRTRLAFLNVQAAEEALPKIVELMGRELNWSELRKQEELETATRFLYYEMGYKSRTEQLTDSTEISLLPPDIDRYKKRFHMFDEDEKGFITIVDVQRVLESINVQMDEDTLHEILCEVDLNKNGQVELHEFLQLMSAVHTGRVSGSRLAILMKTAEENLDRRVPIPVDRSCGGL
Assay: Superoxide/H2O2 production by mGPDH in isolated skeletal muscle mitochondria (Amplex UltraRed)
Type: biochemical
Conditions: read-out: mGPDH H2O2 production (% change at 80 μM)

| compound | experimentalSystem | scaleUnit | inhibition at 80 µM |
| --- | --- | --- | --- |
| O=C(O)CCC(=O)Nc1ccc(-c2nc3cc(C(=O)c4ccccc4)ccc3[nH]2)cc1 [iGP-6] | mGPDH (Rattus norvegicus, UniProt P35571) | % | 55 |
| O=C(O)CCC(=O)Nc1cccc(-c2nc3ccccc3[nH]2)c1 [iGP-8] | mGPDH (Rattus norvegicus, UniProt P35571) | % | 44 |
| O=C(O)CCC(=O)Nc1ccc(-c2nc3ccccc3[nH]2)cc1 [iGP-1] | mGPDH (Rattus norvegicus, UniProt P35571) | % | 55 |
| O=C(O)CCC(=O)Nc1ccc(Cl)cc1 [iGP-18] | mGPDH (Rattus norvegicus, UniProt P35571) | % | -2 |
| CCOc1ccc(C(=O)Nc2ccc(-c3nc4ccccc4[nH]3)cc2)cc1 [iGP-15] | mGPDH (Rattus norvegicus, UniProt P35571) | % | -11 |
| O=C(O)CCC(=O)Nc1ccc(-c2nc3ccccc3o2)cc1 [iGP-2] | mGPDH (Rattus norvegicus, UniProt P35571) | % | 50 |
| c1ccc2[nH]c(-c3ccc(-c4nc5ccccc5[nH]4)cc3)nc2c1 [iGP-10] | mGPDH (Rattus norvegicus, UniProt P35571) | % | 0 |
| O=C(O)CCC(=O)Nc1ccc(-c2nc3cc4ccccc4cc3[nH]2)cc1 [iGP-5] | mGPDH (Rattus norvegicus, UniProt P35571) | % | 65 |
| O=C(O)CCC(=O)Nc1ccc(-c2nc3ccccc3s2)cc1 [iGP-3] | mGPDH (Rattus norvegicus, UniProt P35571) | % | 50 |
| Cc1ccc2[nH]c(-c3ccc(NC(=O)CCC(=O)O)cc3)nc2c1 [iGP-4] | mGPDH (Rattus norvegicus, UniProt P35571) | % | 69 |
| CCCCCCNC(=O)CCC(=O)O [iGP-17] | mGPDH (Rattus norvegicus, UniProt P35571) | % | -6 |
| CCCC(=O)Nc1ccc(-c2nc3cc4ccccc4cc3[nH]2)cc1 [iGP-9] | mGPDH (Rattus norvegicus, UniProt P35571) | % | 2 |
| Cc1ccc(NC(=O)CCC(=O)O)cc1 [iGP-19] | mGPDH (Rattus norvegicus, UniProt P35571) | % | 1 |
| O=C(Nc1ccc(-c2nc3ccccc3[nH]2)cc1)c1ccco1 [iGP-13] | mGPDH (Rattus norvegicus, UniProt P35571) | % | 37 |
| O=C(Nc1ccc(-c2nc3ccccc3[nH]2)cc1)C1CC1 [iGP-16] | mGPDH (Rattus norvegicus, UniProt P35571) | % | 7 |
| COC(=O)CCC(=O)Nc1ccc(C)cc1 [iGP-20] | mGPDH (Rattus norvegicus, UniProt P35571) | % | 20 |
| CC(=O)Nc1ccc(-c2nc3ccccc3[nH]2)cc1 [iGP-12] | mGPDH (Rattus norvegicus, UniProt P35571) | % | 28 |
| O=C(O)CCC(=O)Nc1ccc(-c2nc3cc(NC(=O)CCC(=O)O)ccc3[nH]2)cc1 [iGP-7] | mGPDH (Rattus norvegicus, UniProt P35571) | % | 21 |
| C=C(C)C(=O)Nc1ccc(-c2nc3ccccc3[nH]2)cc1 [iGP-11] | mGPDH (Rattus norvegicus, UniProt P35571) | % | 5 |
